# tgt: recombinant human KLK5 (human) (UniProt Q9Y337)
# Sequence (Q9Y337 67-293): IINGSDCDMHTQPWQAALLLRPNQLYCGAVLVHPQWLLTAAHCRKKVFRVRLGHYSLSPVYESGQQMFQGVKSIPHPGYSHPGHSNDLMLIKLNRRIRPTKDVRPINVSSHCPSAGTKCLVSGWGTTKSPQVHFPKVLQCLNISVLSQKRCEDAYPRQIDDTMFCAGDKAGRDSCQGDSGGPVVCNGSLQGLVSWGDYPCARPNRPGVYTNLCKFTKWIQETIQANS
# assay.comment: Kiapp, KLK5 0.5-0.0625 nM, Z-VPR-pNA
Below, each entry is listed alongside its reported Ki.
Just the number please, in nM, no unit attached.

Quick one: Ki of 9F2 (antibody, V domains shown) VH: QSVKESEGGLFKPTDNLTLTCTVSGFSLSSYGVSWVRQAPGNGLEYIGFIGSGGSPYYASWAKSRSTITRNTNLNTVTLKMTSLTAADTATYFCARDDVGGGKSLDIWGPGTLVTVSS VL: NIVMTQTPASVEVAVGGTVIIKCQASQSISNYLSWYHQKSGQRPRLLIYSASTLASGVPSRFKGSGSGTQFTLTISDLECADAATYYCHQDYTSNSVDNTFGGGTEVVVK ? 0.43

Then 8B7 (antibody, V domains shown) VH: QSVKESEGGLFKPTDNLTLTCTVSGFSLSNYGVTWVRQAPGNGLEYIGFIGSSGSAYYASWAKSRSTITRNTNLNTVTLKMTSLTAADTATYFCARDDVGGGKSLDIWGPGTLVTVSS VL: NIVMTQTPASVEVAVGGTVTIKCQASQSIGSYLSWYQQKPGQPPKLLIYDASNLASGVPSRFKGSGSGTQFTLSISDLECADAATYYCHQDYTSNNVDNTFGGGTEVVIK ? 0.32

Then 9H5 (antibody, V domains shown) VH: QSVKESEGGLFKPTDNLTLTCTVSGFSLSSYGVSWVRQAPGNGLEYIGFIGSGGFAYYASWAKSRSTITRNTNLNTVTLKMTSLTAADTATYFCARDDVGGGKSLDIWGPGTVVTVSV VL: NIVMTQTPASVEAAVGGTVTINCQASQSISSYLSWYQQKSGQRPKLLIFSASTLASGVPSRFTGSGSGTQFTLTISDLQCADAATYYCHQDYTSSNVDNTFGGGTEVVVK ? 0.425
